Source listed as patent US20080261994A1.

The reader will find reported IC50 values listed item by item below.
biological target: Recombinant Human MMP-13 (Homo sapiens); construct: purchased R&D systems 511-MM; assay: MMP-13 inhibitory activity (MMP-13 specific fluorescent substrate with quencher); type: biochemical; conditions: Experimental Example 3; read-out: IC50 MMP13

Below: 5 compounds and their reported IC50.
compound: CC1[C@H](c2ccccc2)[C@]1(NS(=O)(=O)N1CCN(c2ccc(Cl)cn2)CC1)C(=O)O (stereo partly drawn)
IC50: < 0.1 µM
--
compound: O=C(O)C1(NS(=O)(=O)c2ccc(-c3ccc(Cl)cc3)s2)CC1(CSCCO)c1ccccc1 (stereo not drawn)
IC50: < 1 µM
--
compound: CC1[C@H](c2ccccc2)[C@]1(NS(=O)(=O)c1ccc(-c2cc(N(C)C)on2)s1)C(=O)O (stereo partly drawn)
IC50: < 0.1 µM
--
compound: COCc1cc(-c2ccc(S(=O)(=O)N[C@@]3(C(=O)O)C(C)[C@@H]3c3ccccc3)s2)no1 (stereo partly drawn)
IC50: < 0.1 µM
--
compound: C[C@]1(c2ccccc2)C[C@@]1(NS(=O)(=O)c1ccc(-c2ccc(O)c(F)c2)s1)C(=O)O
IC50: ≥ 1 µM

Query: Name the recorded IC50 for CC1[C@H](c2ccccc2)[C@]1(NS(=O)(=O)N1Cc2ccc(Cl)cc2C1)C(=O)O (stereo partly drawn) .
Response: < 1 µM

Query: Same for CC(C)c1cc(-c2ccc(S(=O)(=O)N[C@@]3(C(=O)O)C(C)[C@@H]3c3ccccc3)s2)no1 (stereo partly drawn)
Response: < 0.1 µM

Query: Record: CC1(c2ccccc2Cl)CC1(NS(=O)(=O)c1ccc(-c2cc(C(F)(F)F)on2)s1)C(=O)O (stereo not drawn)
Response: < 1 µM

Query: Now give it for O=C(O)C1(NS(=O)(=O)c2ccc(-c3ccc(Cl)cc3)s2)CC1(CN1CCOCC1)c1ccccc1 (stereo not drawn) too.
Response: ≥ 1 µM

###

# IC50 per entry
target: aggrecanase-1 (Homo sapiens, UniProt O75173); assay: Aggrecanase-1 inhibitory action (Particle Assay, GAG release from aggrecan-containing polyacrylamide particles); type: biochemical; conditions: Experimental Example 1; read-out: IC50 AG1
Sequence (O75173 213-837, species assumed): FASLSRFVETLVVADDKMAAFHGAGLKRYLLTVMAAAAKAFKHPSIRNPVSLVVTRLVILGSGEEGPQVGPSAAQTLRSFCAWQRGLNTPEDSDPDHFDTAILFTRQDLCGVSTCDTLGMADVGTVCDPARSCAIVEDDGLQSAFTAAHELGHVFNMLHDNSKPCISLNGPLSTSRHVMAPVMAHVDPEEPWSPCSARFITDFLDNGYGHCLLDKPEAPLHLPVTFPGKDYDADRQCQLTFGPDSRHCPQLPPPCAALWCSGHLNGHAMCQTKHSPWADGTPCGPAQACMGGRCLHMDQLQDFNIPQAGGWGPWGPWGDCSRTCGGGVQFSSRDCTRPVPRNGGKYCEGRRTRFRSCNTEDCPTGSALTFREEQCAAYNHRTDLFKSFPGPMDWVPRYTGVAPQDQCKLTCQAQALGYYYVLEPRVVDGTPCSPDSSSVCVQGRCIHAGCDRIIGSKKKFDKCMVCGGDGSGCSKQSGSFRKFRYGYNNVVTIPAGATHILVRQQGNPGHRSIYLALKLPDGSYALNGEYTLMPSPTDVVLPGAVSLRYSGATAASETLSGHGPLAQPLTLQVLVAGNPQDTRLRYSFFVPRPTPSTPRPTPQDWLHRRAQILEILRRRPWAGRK

The examples below pair each entry with its known result.
molecule: O=C(Cc1ccc([C@@H]2C[C@]2(NS(=O)(=O)c2ccc(-c3cc(C(F)(F)F)on3)s2)C(=O)O)cc1)N1CCOCC1 [Example 2-291]
result: < 100 nM
//
molecule: CN(C)c1cc(-c2ccc(S(=O)(=O)N[C@@]3(C(=O)O)C[C@]3(C)c3ccccc3)s2)ccc1Cl [Example 2-488]
result: ≥ 1000 nM

Next molecule, IC50 to be filled in.
Query: If you can, please state the reported IC50 value of Cc1cc(C2CC2(NS(=O)(=O)c2ccc(-c3cc(C(F)(F)F)on3)s2)C(=O)O)on1 (stereo not shown) [Example 2-311] .
Response: < 1000 nM

###

molecular target: Recombinant Human MMP-13 (Homo sapiens); construct: purchased R&D systems 511-MM; experiment: MMP-13 inhibitory activity (MMP-13 specific fluorescent substrate with quencher); assay type: biochemical; details: Recombinant Human MMP-13, fluorescent substrate, 25° C. for 1 h; read-out: IC50 MMP13 (Experimental Example 3)
reported_endpoint: IC50

Past entries and their recorded results:
compound: CC(=O)OCCCC1(c2ccccc2)CC1(NS(=O)(=O)c1ccc(-c2cc(C(F)(F)F)on2)s1)C(=O)O (stereo not drawn)
IC50: < 0.1 µM
--
compound: CN1CC=C(c2ccc(S(=O)(=O)N[C@@]3(C(=O)O)C[C@@H]3c3ccccc3)s2)CC1
IC50: ≥ 1 µM
--
compound: COCc1cc(-c2ccc(S(=O)(=O)N[C@@]3(C(=O)O)C[C@@H]3c3ccccc3)s2)no1
IC50: < 0.1 µM
--
compound: CC1CCN(c2ccc(S(=O)(=O)N[C@@]3(C(=O)O)C[C@@H]3c3ccccc3)s2)CC1
IC50: ≥ 10 µM
--
compound: N#Cc1ccc(-c2ccc(S(=O)(=O)N[C@@]3(C(=O)O)C[C@@H]3c3ccccc3)s2)s1
IC50: < 1 µM
--
compound: O=C(O)C1(NS(=O)(=O)c2ccc(-c3ccc(Cl)cc3)s2)C2CCCc3ccccc3C21 (stereo not drawn)
IC50: < 0.1 µM
--
compound: CN1CCN(C(=O)c2ccccc2C2CC2(NS(=O)(=O)c2ccc(-c3ccc(Cl)cc3)s2)C(=O)O)CC1 (stereo not drawn)
IC50: < 1 µM
--
compound: O=C(CCc1cccc(C2CC2(NS(=O)(=O)c2ccc(-c3cc(C(F)(F)F)on3)s2)C(=O)O)c1)N1CCOCC1 (stereo not drawn)
IC50: < 0.1 µM

Query: Bench note: what IC50 did O=C(O)[C@]1(NS(=O)(=O)c2ccc(-c3cc4ccccn4c3)s2)C[C@@H]1c1ccccc1 show?
Response: < 0.1 µM

Query: Follow-up entry: O=C(O)C1(NS(=O)(=O)c2ccc(-c3ccc(Cl)cc3)s2)CC1c1cccc(Oc2cccnc2)c1 (stereo not drawn)
Response: < 1 µM

Query: Request: O=C(O)[C@]1(NS(=O)(=O)c2ccc(-c3ccc(Cl)cc3)s2)C[C@@H]1c1cccc(Br)c1
Response: < 0.1 µM

Query: Here is the next compound: O=C(Cc1cccc(C2CC2(NS(=O)(=O)c2ccc(-c3cc(C(F)(F)F)on3)s2)C(=O)O)c1)N1CCC(O)CC1 (stereo not drawn)
Response: < 0.1 µM

Query: // query: Nc1cccc(C2CC2(NS(=O)(=O)c2ccc(-c3ccc(Cl)cc3)s2)C(=O)O)c1 (stereo not drawn)
Response: < 1 µM

Query: // next record O=C(O)[C@]1(NS(=O)(=O)c2ccc(-c3cc(CF)on3)cc2)C[C@@H]1c1ccccc1
Response: < 0.1 µM

Query: Then O=C(O)C1(NS(=O)(=O)N2CCC(Oc3ccc(Cl)cc3)CC2)CC1c1ccccc1 (stereo not drawn) ?
Response: ≥ 10 µM

###

target: MMP-1 (Homo sapiens, UniProt P03956); assay: MMP-1 inhibitory action (Type I collagen Activity Measurement kit, FITC-labeled collagen type I); type: biochemical; conditions: MMP-1 inhibitory action, FITC-labeled collagen type I, 37° C. for 3 hr; read-out: IC50 MMP1 (Experimental Example 2)
Sequence (P03956 100-469, species assumed): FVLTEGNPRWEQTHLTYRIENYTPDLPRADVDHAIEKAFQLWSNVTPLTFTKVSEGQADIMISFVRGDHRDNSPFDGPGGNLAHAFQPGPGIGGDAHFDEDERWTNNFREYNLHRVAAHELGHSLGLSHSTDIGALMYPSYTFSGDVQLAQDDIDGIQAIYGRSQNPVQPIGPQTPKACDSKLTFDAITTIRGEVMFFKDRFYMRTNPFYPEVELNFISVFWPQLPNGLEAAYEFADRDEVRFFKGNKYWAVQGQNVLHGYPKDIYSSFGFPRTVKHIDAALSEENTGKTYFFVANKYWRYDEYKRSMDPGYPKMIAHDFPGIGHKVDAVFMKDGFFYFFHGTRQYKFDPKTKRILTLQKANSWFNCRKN
pIC50: −log10 of the molar value.
reported_endpoint: pIC50

// below: answered compounds
compound: O=C(O)[C@]1(NS(=O)(=O)/C=C/c2ccccc2)C[C@@H]1c1ccccc1
result: ≤ 5.00
--
compound: COC(=O)c1cccc(C2CC2(NS(=O)(=O)c2ccc(-c3ccc(Cl)cc3)s2)C(=O)O)c1 (centres unmarked)
result: ≤ 6.00
--
compound: CN(Cc1cccnc1)c1cccc([C@H]2C[C@@]2(NS(=O)(=O)c2ccc(-c3ccc(Cl)cc3)s2)C(=O)O)c1
result: ≤ 6.00

Query: For the compound shown here, Cc1nc(-c2ccc(S(=O)(=O)NC3(C(=O)O)CC3c3ccccc3)s2)c(Cl)o1 (centres unmarked) , give the reported pIC50.
Response: ≤ 5.00

Query: Try this compound too: O=C(c1cccc(C2CC2(NS(=O)(=O)c2ccc(-c3ccc(Cl)cc3)s2)C(=O)O)c1)N1CCOCC1 (centres unmarked)
Response: ≤ 5.00

Query: Try O=C(NO)C1(NS(=O)(=O)c2ccc(OCc3ccc(Cl)cc3Cl)cc2)CC1c1ccccc1 (centres unmarked) next.
Response: ≤ 6.00

Query: Follow-up entry: COC(=O)c1ccccc1C1CC1(NS(=O)(=O)c1ccc(-c2ccc(Cl)cc2)s1)C(=O)O (centres unmarked)
Response: ≤ 5.00

Query: What about this compound? Cc1nc(-c2ccc(S(=O)(=O)N[C@@]3(C(=O)O)C[C@@H]3c3ccccc3)s2)cs1
Response: ≤ 5.00

Query: Also C[C@]1(c2ccccc2)C[C@@]1(NS(=O)(=O)c1ccc(-c2cc(C(F)(F)C(F)(F)F)on2)s1)C(=O)O ?
Response: ≤ 5.00

###

Reported IC50 by item:
molecular target: Recombinant Human MMP-13 (Homo sapiens, UniProt P45452); construct: purchased R&D systems 511-MM; assay: MMP-13 inhibitory activity (MMP-13 specific fluorescent substrate with quencher); format: biochemical; settings: Experimental Example 3; read-out: IC50 MMP13

As a guide, the following entries are already answered.
compound: CN1CCC2C(c3ccccc31)C2(NS(=O)(=O)c1ccc(-c2ccc(Cl)cc2)s1)C(=O)O (stereo not shown)
IC50: < 100 nM
//
compound: CC1[C@H](c2ccccc2)[C@]1(NS(=O)(=O)c1ccc(-n2cc(Br)cn2)s1)C(=O)O (stereo partly shown)
IC50: < 100 nM
//
compound: O=C(CCc1ccc([C@H]2C[C@@]2(NS(=O)(=O)c2ccc(-c3cc(C(F)(F)F)on3)s2)C(=O)O)cc1)N1CCOCC1
IC50: < 100 nM

Query: Quick one: IC50 of CC1[C@H](c2ccccc2)[C@]1(NS(=O)(=O)c1ccc(-c2cc(C(F)F)on2)cc1)C(=O)O (stereo partly shown) ?
Response: < 100 nM

Query: And the next one, CC1[C@](C)(c2ccccc2)[C@]1(NS(=O)(=O)c1ccc(-c2cc(C(F)(F)F)on2)s1)C(=O)O (stereo partly shown) ?
Response: < 100 nM

Query: And what about the compound CC1[C@H](c2ccccc2)[C@]1(NS(=O)(=O)N1CCCN(c2ccc(F)cc2)CC1)C(=O)O (stereo partly shown) ?
Response: ≥ 10000 nM

Query: Again, but for CC1(C)C(c2ccccc2)C1(NS(=O)(=O)c1ccc(-c2ccc(Cl)cc2)s1)C(=O)O (stereo not shown)
Response: ≥ 1000 nM
